VNA IC50 reference
- SYSTEM NAME: hemagglutinin (HA) of influenza B/Harbin/7/94 (Yamagata) (influenza B virus)
- PROTOCOL NOTES: cell-based or functional assay
QUANTITY MEASURED: VNA IC50

BINDER: SD3010 (VHH) VHH: EVQLLESGGGLVQPGGSLRLSCAASGFTLENKAIGWFRQAPGKEREGVLCISKSGSWTYYADSVKGRFTISRDNSKNTLYLQMNSLRAEDTAVYYCATTTAGGGLCWDGTTFSRLASSWGQGTQVTVSS
OBSERVED RESULT: 173 nM

BINDER: SD3049 (VHH) VHH: EVQLVESGGGLVQPGGSLRLSCAASGLSLDTYAMSWFRQAPGKEREGVSCISSGHGMTYYADSVKGRFTISRDNSKNTLYLQMNSLQPEDTARYYCATESRYYCSDNWPAPQRYIYWGQGTQVTVSS
OBSERVED RESULT: > 1000 nM

BINDER: SD3092 (VHH) VHH: EVQLVESGGGLVQPGGSLRLSCAISGLSLDTYAVGWFRQAPGKEREGVSCISSGHGMTYYADSVKGRFTISTDNSKNTLYLQMNSLRAEDTAVYYCATESRYYCSDNWPAPQRYIYWGQGTLVTVSS
OBSERVED RESULT: > 1000 nM

BINDER: SD3002 (VHH) VHH: EVQLVESGGGLVQPGGSLRLSCAASGFTFSTSWMYWLRQAPGKGLEWVSVINTDGGTYYADSVKGRFTISRDNSKNTLYLQMNSLRAEDTAVYYCAKDWGGPEPTRGQGTQVTVSS
OBSERVED RESULT: 137 nM

BINDER: SD3052 (VHH) VHH: EVQLVESGGGLVQPGGSLRLSCAASGLSLDTYAMSWFRQAPGKEREGVSCISSGHGLTYYADSVKGRFTISRDNSKNTLYLQMNSLQPEDTARYYCATESRYYCSDNWPAPQRYIYWGQGTQVTVSS
OBSERVED RESULT: > 1000 nM

BINDER: SD1087 (VHH) VHH: EVQLVESGGGLVQPGGSLRLSCVISGLSLDTYAVGWFRQAPGKEREGITCISSGHGMTYYADSVKGRFTVSTDNAKNTVYLQMNGLQPEDTARYYCATESRYYCSDNWPAPQRYIYWGQGTQVTVSS
OBSERVED RESULT: > 1000 nM

BINDER: SD3001 (VHH) VHH: EVQLVESGGGLVQPGGSLRLSCAASGFTFSTSWMSWLRQAPGKGLEWVSVINTDGGTYYADSVKGRFTISRDNSKNTLYLQMNSLRAEDTAVYYCAKDWGGPEPTRGQGTQVTVSS
OBSERVED RESULT: > 1000 nM

BINDER: SD3069 (VHH) VHH: EVQLVESGGGLVQPGGSLRLSCAISGLSLDTYAVGWFRQAPGKEREGITCISSGHGMTYYADSVKGRFTVSTDNSKNTLYLQMNSLRAEDTAVYYCATESRYYCSDNWPAPQRYIYWGQGTLVTVSS
OBSERVED RESULT: > 1000 nM

BINDER: SD3007 (VHH) VHH: EVQLLESGGGLVQPGGSLRLSCAASGFTLENKAIGWFRQAPGKEREGVSCISKSGSWTYYADSVKGRFTISRDNSKNTVYLQMNSLRAEDTAVYYCATTTAGGGLCWDGTTFSRLASSWGQGTQVTVSS
OBSERVED RESULT: > 1000 nM

BINDER: SD3087 (VHH) VHH: EVQLLESGGGLVQPGGSLRLSCAASGFTLENKAIGWFRQAPGKEREGVLCISKSGSWTYYADSVKGRFTISRDNSKNTVYLQMNSLRPEDTAVYYCATTTAGGGLCWDGTTFSRLASSWGQGTLVTVSS
OBSERVED RESULT: 201 nM

BINDER: SD3104 (VHH) VHH: EVQLVESGGGLVQPGGSLRLSCAISGLSLDTYAVGWFRQAPGKEREGVSCISSGHGNTYYADSVKGRFTISTDNSKNTLYLQMNSLRAEDTAVYYCATESRYYCSDNWPAPQRYIYWGQGTLVTVSS
OBSERVED RESULT: > 1000 nM

BINDER: SD3100 (VHH) VHH: EVQLVESGGGLVQPGGSLRLSCAISGLSLDTYAVGWFRQAPGKEREGVSCISSGHGATYYADSVKGRFTISTDNSKNTLYLQMNSLRAEDTAVYYCATESRYYCSDNWPAPQRYIYWGQGTLVTVSS
OBSERVED RESULT: > 1000 nM

BINDER: SD3075 (VHH) VHH: EVQLVESGGGLVQPGGSLRLSCAASGLSLDTYAVGWFRQAPGKEREGVSCISSGHGITYYADSVKGRFTISTDNSKNTLYLQMNSLRAEDTAVYYCATESRYYCSDNWPAPQRYIYWGQGTLVTVSS
OBSERVED RESULT: > 1000 nM

BINDER: SD3051 (VHH) VHH: EVQLVESGGGLVQPGGSLRLSCAASGLSLDTYAMSWFRQAPGKEREGVSCISSGHGITYYADSVKGRFTISRDNSKNTLYLQMNSLQPEDTARYYCATESRYYCSDNWPAPQRYIYWGQGTQVTVSS
OBSERVED RESULT: > 1000 nM

BINDER: SD3071 (VHH) VHH: EVQLVESGGGLVQPGGSLRLSCAISGLSLDTYAVGWFRQAPGKEREGITCISSGHGLTYYADSVKGRFTVSTDNSKNTLYLQMNSLRAEDTAVYYCATESRYYCSDNWPAPQRYIYWGQGTLVTVSS
OBSERVED RESULT: > 1000 nM
